System: human SMAD7 mRNA
RUN_DESCRIPTION: Dose-dependent inhibition of human SMAD7 mRNA expression in Hep3B cells (Example 3, Study 1 and 2)
Format: cell-based
COND: 2220 nM, electroporation, approximately 16 hours, Study 2
Strand notation (5' to 3'): a small letter for the sugar, then the base; units joined by * are phosphorothioate-linked, units joined directly phosphodiester-linked; [ ] holds rarer units or linkages, { } end groups; capitals alone tell only the bases. e = 2'-O-(2-methoxyethyl) (MOE); k = constrained ethyl (cEt); [5mC] = 5-methylcytosine; d = 2'-deoxy (DNA)
Record form. Attribute: % inhibition of SMAD7 mRNA expression. Fill in for each entry.
// units = %; emit number, no label

Ask: Annotate the substance 799711 (antisense kG*kG*kT*d[5mC]*dA*dA*dA*d[5mC]*dT*dT*dG*dT*dG*kG*kT*kA) [compound 799711] with its measured % inhibition of SMAD7 mRNA expression.
Result: 47

Ask: Annotate the substance 771576 (antisense eG*eG*eG*e[5mC]*eA*dG*dG*dA*dG*dA*dG*dA*d[5mC]*dA*d[5mC]*e[5mC]*eG*e[5mC]*eT*eT) [compound 771576] with its measured % inhibition of SMAD7 mRNA expression.
Result: 23

Ask: Annotate the substance 799878 (kG*k[5mC]*k[5mC]*d[5mC]*d[5mC]*d[5mC]*d[5mC]*dT*d[5mC]*d[5mC]*d[5mC]*d[5mC]*dG*kT*kG*k[5mC]; antisense) [compound 799878] with its measured % inhibition of SMAD7 mRNA expression.
Result: 64

---

System: human SMAD7 mRNA
RUN_DESCRIPTION: Antisense inhibition of human SMAD7 mRNA expression in Hep3B cells by 5-10-5 MOE gapmers, single concentration, electroporation, RT-PCR (Example 1, Study 1 and 2)
Format: cell-based
COND: electroporation, 15,000 nM, approximately 24 hours, gapmers targeting SEQ ID NO: 3 and 4
Strand notation (5' to 3'): a small letter for the sugar, then the base; units joined by * are phosphorothioate-linked, units joined directly phosphodiester-linked; [ ] holds rarer units or linkages, { } end groups; capitals alone tell only the bases. e = 2'-O-(2-methoxyethyl) (MOE); [5mC] = 5-methylcytosine; d = 2'-deoxy (DNA)
# label = y if % inhibition of SMAD7 mRNA expression >= 40% else n

Ask: Does % inhibition of SMAD7 mRNA expression meet or surpass 40% for 771342 (antisense eT*e[5mC]*eA*eG*eT*dT*dG*dG*dT*dT*dT*dG*dA*dG*dA*eA*eA*eA*eT*e[5mC]) [compound 771342] ?
Result: n

Ask: Does % inhibition of SMAD7 mRNA expression meet or surpass 40% for 771345 (antisense eA*e[5mC]*eA*eG*e[5mC]*dA*dT*d[5mC]*dT*dG*dG*dA*d[5mC]*dA*dG*eT*e[5mC]*eA*eG*eT) [compound 771345] ?
Result: y

Ask: Does % inhibition of SMAD7 mRNA expression meet or surpass 40% for 771343 (antisense eG*eA*e[5mC]*eA*eG*dT*d[5mC]*dA*dG*dT*dT*dG*dG*dT*dT*eT*eG*eA*eG*eA) [compound 771343] ?
Result: n

Ask: Does % inhibition of SMAD7 mRNA expression meet or surpass 40% for 771344 (antisense eA*eT*e[5mC]*eT*eG*dG*dA*d[5mC]*dA*dG*dT*d[5mC]*dA*dG*dT*eT*eG*eG*eT*eT) [compound 771344] ?
Result: n

---

System: human SMAD7 mRNA
RUN_DESCRIPTION: Dose-dependent inhibition of human SMAD7 mRNA expression in Hep3B cells, comparison with ION 28453 (Example 4)
Type: cell-based
COND: electroporation, 20.00 μM, approximately 16 hours
Strand notation (5' to 3'): a small letter for the sugar, then the base; units joined by * are phosphorothioate-linked, units joined directly phosphodiester-linked; [ ] holds rarer units or linkages, { } end groups; capitals alone tell only the bases. k = constrained ethyl (cEt); [5mC] = 5-methylcytosine; d = 2'-deoxy (DNA)
# label = class 1 if % inhibition of SMAD7 mRNA expression >= 80% else class 0

Ask: Does % inhibition of SMAD7 mRNA expression meet or surpass 80% for 772568 (antisense kA*kG*k[5mC]*d[5mC]*dT*d[5mC]*dT*dT*dG*dA*d[5mC]*dT*dT*k[5mC]*k[5mC]*kG) [compound 772568] ?
Result: class 0

Ask: Does % inhibition of SMAD7 mRNA expression meet or surpass 80% for 801040 (antisense kG*kT*k[5mC]*dA*dT*dG*dA*dA*dA*dG*dA*dT*dT*k[5mC]*kT*kT) [compound 801040] ?
Result: class 1

Ask: Does % inhibition of SMAD7 mRNA expression meet or surpass 80% for 801051 (antisense kG*kT*kG*dT*dT*d[5mC]*dA*dA*d[5mC]*dA*dA*dT*dG*k[5mC]*kT*kT) [compound 801051] ?
Result: class 1

Ask: Does % inhibition of SMAD7 mRNA expression meet or surpass 80% for 798781 (CGTAAGATTCACAGCA; 3-10-3 cEt gapmer, further chemistry not given here) [compound 798781] ?
Result: class 1

---

Test system: human SMAD7 mRNA
RUN_DESCRIPTION: Antisense inhibition of human SMAD7 mRNA expression in Hep3B cells by 3-10-3 cEt gapmers, 10,000 nM, electroporation (Example 2)
Format: cell-based
COND: Hep3B cells, electroporation with 10,000 nM antisense oligonucleotide, approximately 24 hours, SMAD7 mRNA by RT-PCR (RTS5062), relative to untreated control cells
Strand notation (5' to 3'): a small letter for the sugar, then the base; units joined by * are phosphorothioate-linked, units joined directly phosphodiester-linked; [ ] holds rarer units or linkages, { } end groups; capitals alone tell only the bases. k = constrained ethyl (cEt); [5mC] = 5-methylcytosine; d = 2'-deoxy (DNA)
PARAMETER: % Inhibition (%)
// units = %; emit number, no label

Ask: Annotate the substance 798898 (kA*kG*k[5mC]*dT*dG*d[5mC]*dT*dG*dA*dT*dG*dA*dA*k[5mC]*kT*kG; antisense) [compound 798898] with its measured % Inhibition.
Result: 2

Ask: Annotate the substance 800099 (antisense kT*kG*k[5mC]*dA*dA*dA*dG*dG*dG*dA*d[5mC]*d[5mC]*d[5mC]*kT*kT*kA) [compound 800099] with its measured % Inhibition.
Result: 6

Ask: Annotate the substance 830017 (antisense kA*kG*kG*d[5mC]*dG*dG*dA*dA*dG*dG*dA*d[5mC]*dT*kT*kG*k[5mC]) [compound 830017] with its measured % Inhibition.
Result: 30

Ask: Annotate the substance 830212 (kG*k[5mC]*kA*dG*dG*dG*dT*dG*dG*dA*dG*dA*d[5mC]*k[5mC]*kG*kG; antisense) [compound 830212] with its measured % Inhibition.
Result: 43

Ask: Annotate the substance 830132 (antisense kT*kA*k[5mC]*d[5mC]*d[5mC]*dG*d[5mC]*d[5mC]*d[5mC]*dA*d[5mC]*dT*d[5mC]*k[5mC]*k[5mC]*k[5mC]) [compound 830132] with its measured % Inhibition.
Result: 8

Ask: Annotate the substance 772587 (kA*kT*k[5mC]*d[5mC]*d[5mC]*d[5mC]*dA*dG*dG*d[5mC]*dT*d[5mC]*d[5mC]*kA*kG*kA; antisense) [compound 772587] with its measured % Inhibition.
Result: 39
